- Experimental System: C-X-C chemokine receptor type 4 (Homo sapiens)
- Sequence (P61073 whole entry): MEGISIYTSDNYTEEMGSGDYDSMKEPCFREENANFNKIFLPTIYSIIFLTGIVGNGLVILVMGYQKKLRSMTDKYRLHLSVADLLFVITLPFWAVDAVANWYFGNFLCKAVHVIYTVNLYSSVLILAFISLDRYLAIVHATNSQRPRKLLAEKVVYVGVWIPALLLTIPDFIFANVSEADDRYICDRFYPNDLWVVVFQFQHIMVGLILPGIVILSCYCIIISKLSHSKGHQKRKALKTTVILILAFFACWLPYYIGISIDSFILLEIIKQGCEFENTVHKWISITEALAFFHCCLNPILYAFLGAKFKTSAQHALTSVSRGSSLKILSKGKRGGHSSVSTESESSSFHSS
- Procedure Summary: Antagonist activity against human recombinant CXCR4 expressed in CHO cells assessed as inhibition of human SDF1-alpha-stimulated calcium mobilization
- Type: functional, cell-based
pIC50: −log10 of the molar value.
Observable: pIC50

Examples from the recorded data:
{"Molecule": "CCCCN1C(=O)C(CC(C)C)NC(=O)C12CCN(Cc1ccccc1)CC2 (stereo not given)", "Observed Result": "< 4.52"}
{"Molecule": "CCCCN1C(=O)C(CC2CCCCC2)NC(=O)C12CCN(Cc1ccc(OC)cc1)CC2 (stereo not given)", "Observed Result": "< 4.52"}
{"Molecule": "CC(C)C[C@H]1NC(=O)C2(CCN(Cc3ccccc3)CC2)N(Cc2ccccc2)C1=O", "Observed Result": "< 4.52"}
{"Molecule": "CCCCN1C(=O)C(CC(C)C)NC(=O)C12CCN(Cc1ccc(Oc3ccccc3)cc1)CC2 (stereo not given)", "Observed Result": "< 5.00"}
{"Molecule": "CCCN1C(=O)[C@@H](CC2CCCCC2)NC(=O)C12CCN(CCCCCCc1ccccc1)CC2", "Observed Result": "< 5.00"}

Field pIC50 (entry CCCN1C(=O)C(CC(C)C)NC(=O)C12CCN(Cc1ccc(Oc3ccccc3)cc1)CC2 (stereo not given) ) reads < 4.52

The recorded pIC50 for entry CCCCN1C(=O)C(CC(C)C)NC(=O)C12CCN(CCCCCCc1ccccc1)CC2 (stereo not given) equals 5.17

Lab note: measured pIC50 of `CCCN1C(=O)[C@H](CC(C)C)NC(=O)C12CCN(CCCCCCc1ccccc1)CC2` was < 5.00

// pIC50 lookup, molecule = `CCCN1C(=O)[C@H](CC2CCCCC2)NC(=O)C12CCN(CCCCCCc1ccccc1)CC2` , result: < 5.00

`CC(C)C[C@@H]1NC(=O)C2(CCN(Cc3ccccc3)CC2)N(Cc2ccccc2)C1=O` has a reported pIC50 of < 4.52

Briefly, pIC50 measured for CCCCN1C(=O)C(CC2CCCCC2)NC(=O)C12CCN(Cc1ccc(Oc3ccccc3)cc1)CC2 (stereo not given) : < 5.00

The recorded pIC50 for entry `CCCN1C(=O)[C@@H](CC(C)C)NC(=O)C12CCN(CCCCCCc1ccccc1)CC2` equals < 5.00

Value of measured pIC50 for the entry CCCCN1C(=O)C(CC2CCCCC2)NC(=O)C12CCN(Cc1ccc3c(c1)OCCO3)CC2 (stereo not given) : < 5.00

Input C=CCOc1ccc(CN2CCC3(CC2)C(=O)NC(CC2CCCCC2)C(=O)N3CCCC)cc1 (stereo not given) . Output pIC50: < 5.00

Just so you know, measured pIC50 for CCCCN1C(=O)C(CC(C)C)NC(=O)C12CCN(Cc1ccc3c(c1)OCCO3)CC2 (stereo not given) came out at < 5.00

* * *

Entries annotated with measured IC50
- Experimental System: C-C chemokine receptor type 2 (Homo sapiens)
- Sequence (P41597 whole entry): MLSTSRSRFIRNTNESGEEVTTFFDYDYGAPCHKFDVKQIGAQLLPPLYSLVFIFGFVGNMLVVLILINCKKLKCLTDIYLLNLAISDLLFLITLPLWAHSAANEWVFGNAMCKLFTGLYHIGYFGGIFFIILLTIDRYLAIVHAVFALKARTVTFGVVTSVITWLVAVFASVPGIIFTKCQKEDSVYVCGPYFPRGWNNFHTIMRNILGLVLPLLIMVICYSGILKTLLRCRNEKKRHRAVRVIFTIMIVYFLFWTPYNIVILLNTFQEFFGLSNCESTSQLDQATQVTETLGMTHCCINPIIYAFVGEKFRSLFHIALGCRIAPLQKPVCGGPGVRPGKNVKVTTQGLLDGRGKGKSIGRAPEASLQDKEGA
- Procedure Summary: Antagonist activity against human recombinant CCR2 expressed in CHO cells assessed as inhibition of human MCP1-stimulated calcium mobilization
- Format: functional, cell-based

Solved cases below.
{"Compound": "C=CCOc1ccc(CN2CCC3(CC2)C(=O)NC(CC2CCCCC2)C(=O)N3CCCC)cc1 (stereo unspecified)", "Observable": "IC50", "Observed Result": "> 10 µM"}
{"Compound": "CCCCN1C(=O)C(CC(C)C)NC(=O)C12CCN(CCCCCCc1ccccc1)CC2 (stereo unspecified)", "Observable": "IC50", "Observed Result": "> 10 µM"}
{"Compound": "CCCCN1C(=O)C(CC(C)C)NC(=O)C12CCN(Cc1ccccc1)CC2 (stereo unspecified)", "Observable": "IC50", "Observed Result": "> 30 µM"}
{"Compound": "CCCN1C(=O)C(CC(C)C)NC(=O)C12CCN(Cc1ccc(Oc3ccccc3)cc1)CC2 (stereo unspecified)", "Observable": "IC50", "Observed Result": "> 30 µM"}
{"Compound": "CCCCN1C(=O)C(CC2CCCCC2)NC(=O)C12CCN(Cc1ccc3c(c1)OCCO3)CC2 (stereo unspecified)", "Observable": "IC50", "Observed Result": "> 10 µM"}

Continue with the compound presented below.
// IC50 (C-C chemokine receptor type 2 (Homo sapiens)) for `CCCN1C(=O)[C@H](CC2CCCCC2)NC(=O)C12CCN(CCCCCCc1ccccc1)CC2` = > 10 µM
